# assay_info: DPPH redox assay
# Design: key: The sign “—” stands for “inactive”
# condition_parameters: redox activity control
test_readout: IC50 DPPH

Cc1ccccc1CCNS(=O)(=O)c1c(C)cccc1Cl [Example 11] = —
Cc1cc(C)c(S(=O)(=O)NCCc2ccccc2O)c(C)c1 [Example 37] = —
O=S(=O)(NCCc1ccccc1Cl)c1c(Cl)cc(Br)cc1Cl [Example 20] = —
Cc1ccccc1CCNS(=O)(=O)c1c(Cl)cc(Br)cc1Cl [Example 17] = —

Asked: # input compound: Cc1ccccc1C(F)CNS(=O)(=O)c1c(Cl)cc(Br)cc1Cl (single isomer, unassigned) [Example 35 (isomer 2)] ; wanted: its IC50 DPPH
Given back: —

----------
# assay_info: Plasma protein binding, human
# Format: in vitro ADME
# condition_parameters: 10 μM in plasma, equilibrium dialysis 4 h, read-out: fu % human plasma protein
test_readout: fraction unbound at 4 h, 10 μM
Give a plain numeric answer without units written out.

COc1cc(C)c(S(=O)(=O)NCCc2ccccc2O)c(C)c1 = 0.03
COc1cc(C)c(S(=O)(=O)NCCc2ccccc2Cl)c(C)c1 = 0.0026
Cc1cc(Cl)c(S(=O)(=O)NCCc2ccccc2O)c(C)c1O = 0.015
Cc1ccccc1CCNS(=O)(=O)c1c(Cl)cc(Br)cc1Cl = 0.0002

Proceed to the following item.
Asked: # input molecule: `Cc1cc(O)cc(C)c1S(=O)(=O)NCCc1ccccc1O` ; wanted: its fraction unbound at 4 h, 10 μM
Given back: 0.011

----------
# system: xanthine oxidase (Bos taurus (Bovine))
# Sequence (P80457 whole entry): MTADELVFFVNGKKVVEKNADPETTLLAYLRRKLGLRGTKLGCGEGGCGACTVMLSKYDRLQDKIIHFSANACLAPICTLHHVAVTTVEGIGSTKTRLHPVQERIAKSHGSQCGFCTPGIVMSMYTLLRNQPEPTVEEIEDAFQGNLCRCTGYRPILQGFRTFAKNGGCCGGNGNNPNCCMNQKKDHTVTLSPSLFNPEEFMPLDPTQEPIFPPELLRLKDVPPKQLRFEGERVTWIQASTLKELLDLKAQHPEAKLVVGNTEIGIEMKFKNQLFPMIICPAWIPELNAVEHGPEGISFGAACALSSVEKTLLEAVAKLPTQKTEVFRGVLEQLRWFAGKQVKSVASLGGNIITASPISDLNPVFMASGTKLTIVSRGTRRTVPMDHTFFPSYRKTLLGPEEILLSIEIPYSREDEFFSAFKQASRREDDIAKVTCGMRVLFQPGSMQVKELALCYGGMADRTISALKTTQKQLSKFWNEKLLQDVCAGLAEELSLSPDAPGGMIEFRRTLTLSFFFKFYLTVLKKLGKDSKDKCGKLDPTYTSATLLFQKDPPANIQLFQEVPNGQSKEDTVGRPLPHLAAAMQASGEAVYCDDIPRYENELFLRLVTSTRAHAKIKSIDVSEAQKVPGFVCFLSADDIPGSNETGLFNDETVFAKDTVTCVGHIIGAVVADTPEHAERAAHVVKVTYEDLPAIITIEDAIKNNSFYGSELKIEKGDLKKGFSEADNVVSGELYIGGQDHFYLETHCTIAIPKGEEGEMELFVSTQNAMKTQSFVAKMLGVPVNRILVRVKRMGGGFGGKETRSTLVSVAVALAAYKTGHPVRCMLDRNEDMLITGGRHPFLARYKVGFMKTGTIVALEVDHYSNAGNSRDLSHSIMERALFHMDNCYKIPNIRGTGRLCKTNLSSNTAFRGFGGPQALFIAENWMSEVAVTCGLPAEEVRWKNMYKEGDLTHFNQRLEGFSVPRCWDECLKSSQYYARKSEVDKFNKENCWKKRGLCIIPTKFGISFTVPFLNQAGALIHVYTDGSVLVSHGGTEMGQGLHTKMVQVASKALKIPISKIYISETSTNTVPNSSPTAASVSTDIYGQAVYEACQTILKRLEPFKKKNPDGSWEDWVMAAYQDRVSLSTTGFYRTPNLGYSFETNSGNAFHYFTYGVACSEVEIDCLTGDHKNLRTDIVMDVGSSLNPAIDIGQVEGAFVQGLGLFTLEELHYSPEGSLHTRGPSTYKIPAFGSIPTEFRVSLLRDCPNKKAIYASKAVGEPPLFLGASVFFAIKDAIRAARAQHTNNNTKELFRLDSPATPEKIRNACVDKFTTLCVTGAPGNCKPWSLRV
# assay_info: Amplex Red xanthine oxidase (XO) assay
# Type: biochemical
# Parameters: key: The sign “—” stands for “inactive”
test_readout: IC50 XO

Cc1ccccc1CCNS(=O)(=O)c1c(Cl)cc(Br)cc1Cl = —
Cc1cc(C)c(S(=O)(=O)NCCc2ccccc2O)c(C)c1 = —
O=S(=O)(NCCc1ccccc1F)c1c(Cl)cc(C2CC2)cc1Cl = —

----------
# system: UniProt:Q96PH1
# Sequence (Q96PH1 whole entry): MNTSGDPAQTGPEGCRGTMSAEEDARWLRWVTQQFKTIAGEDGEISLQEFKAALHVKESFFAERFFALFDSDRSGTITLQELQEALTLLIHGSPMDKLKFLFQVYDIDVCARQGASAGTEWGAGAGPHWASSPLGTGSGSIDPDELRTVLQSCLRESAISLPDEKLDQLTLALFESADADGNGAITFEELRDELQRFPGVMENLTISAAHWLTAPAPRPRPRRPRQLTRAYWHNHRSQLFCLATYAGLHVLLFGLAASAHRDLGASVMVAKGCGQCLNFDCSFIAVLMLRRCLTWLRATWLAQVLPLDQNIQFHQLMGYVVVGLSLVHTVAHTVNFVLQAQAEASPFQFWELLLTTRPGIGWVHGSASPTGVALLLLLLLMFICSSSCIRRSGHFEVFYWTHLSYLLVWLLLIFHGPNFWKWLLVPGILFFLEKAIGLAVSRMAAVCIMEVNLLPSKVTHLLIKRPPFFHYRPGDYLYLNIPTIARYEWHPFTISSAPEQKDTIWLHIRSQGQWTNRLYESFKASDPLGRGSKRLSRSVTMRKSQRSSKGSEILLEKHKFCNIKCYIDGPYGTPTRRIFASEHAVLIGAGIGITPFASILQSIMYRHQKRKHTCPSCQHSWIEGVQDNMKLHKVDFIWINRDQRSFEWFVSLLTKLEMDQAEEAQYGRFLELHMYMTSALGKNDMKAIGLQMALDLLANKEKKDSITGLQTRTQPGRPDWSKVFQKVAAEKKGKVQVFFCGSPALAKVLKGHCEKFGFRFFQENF
# assay_info: Amplex Red assay of Nox5 expressing HEK cells
# Format: cell-based
# Design: key: The sign “—” stands for “inactive”
test_readout: IC50 Nox5

Cc1cc(C)c(S(=O)(=O)NCCc2ccccc2O)c(C)c1 = —
O=S(=O)(NCCc1ccccc1F)c1c(Cl)cc(C2CC2)cc1Cl = —
O=S(=O)(NCCc1ccccc1Cl)c1c(Cl)cc(Br)cc1Cl = —
Cc1cc(C)c(S(=O)(=O)NCCc2ccccc2C)c(C)c1 = —

Proceed to the following item.
Asked: # input compound: `COc1cc(C)c(S(=O)(=O)NCCc2ccccc2Cl)c(C)c1` ; wanted: its IC50 Nox5
Given back: —

----------
Entries and their measured fraction unbound at 4 h, 10 μM follow.
# assay_info: Plasma protein binding, human
# Format: in vitro ADME
# condition_parameters: 10 μM in plasma, equilibrium dialysis 4 h, read-out: fu % human plasma protein

Asked: # input molecule: `Cc1cc(C)c(S(=O)(=O)NCCc2ccccc2O)c(C)c1` ; wanted: its fraction unbound at 4 h, 10 μM
Given back: 0.011

Asked: # input molecule: `O=S(=O)(NCCc1ccccc1O)c1c(Cl)cc(Br)cc1Cl` ; wanted: its fraction unbound at 4 h, 10 μM
Given back: 0.0062

Asked: # input molecule: Cc1ccccc1C(F)CNS(=O)(=O)c1c(Cl)cc(Br)cc1Cl (racemic) ; wanted: its fraction unbound at 4 h, 10 μM
Given back: 0.0002
